Provenance of the data: paper PMC6753678

Would you kindly list Is compound selective in assay? Pb ODA active? for each of these compounds?
# System: P. berghei ookinete development
# COND: 1: YES; 0: NO

>>> value_reported("CCn1cc(C(=O)O)c(=O)c2cc(F)c(N3CCN(S(=O)(=O)c4ccc(N)cc4)CC3)cc21 [TCMDC-125809]")
"1 (1: YES)"

For each of the items listed, what is its Is compound selective in assay? Pb ODA active??
1. COCCN(C)c1ccc(C(=O)Nc2ccccc2)cc1NS(=O)(=O)Cc1ccccc1.O=C(O)C(F)(F)F [TCMDC-134575]
2. CN1c2ccc([N+](=O)[O-])cc2C(C)(C)C12C=Cc1cc(Br)cc([N+](=O)[O-])c1O2 (stereo not drawn) [TCMDC-124178]
3. Cc1ccc(C2=NNC3(S2)C(=O)N(C)c2ccccc23)cc1 (stereo not drawn) [TCMDC-123863]
4. O=C(Nc1ccc(OC2CCN(Cc3ccc(F)cc3)C2)c(Cl)c1)c1cccs1.O=C(O)C(F)(F)F (stereo not drawn) [TCMDC-133757]
5. Cc1[nH]c(C)c(-c2ccc(-c3ccc(OC(F)(F)F)cc3)nc2)c(=O)c1Cl [TCMDC-135677]
6. Cc1[nH]c(C)c(-c2ccc(OCc3cc(C(F)(F)F)cc(C(F)(F)F)c3)nc2)c(=O)c1Cl [TCMDC-135814]
7. Cc1[nH]c(C)c(-c2ccc(OCc3ccc(OC(F)(F)F)cc3)nc2)c(=O)c1Br [TCMDC-135254]

result:
1 (1: YES)
1 (1: YES)
1 (1: YES)
1 (1: YES)
1 (1: YES)
1 (1: YES)
1 (1: YES)

# batch: return Is compound selective in assay? Pb ODA active? for each of the 4 compounds below
1. Cn1nc(C(F)(F)F)c(-c2ccc(Br)cc2)c1NC(=O)Cc1ccccc1F [TCMDC-123792]
2. COc1ccc2nccc(N3CCC(CCNCc4ccc5c(n4)NC(=O)CS5)CC3)c2n1.Cl [TCMDC-141944]
3. Cc1cc(C2NC(=O)c3ccccc3N2)c(C)n1-c1ccc2c(c1)OCO2 (stereo not drawn) [TCMDC-125051]
4. Cc1ccc(Nc2nc3cc(N(C)c4ccnc(Nc5cccc(CCS(C)(=O)=O)c5)n4)ccc3n2C)cc1.O=C(O)C(F)(F)F [TCMDC-138853]

result:
1. 1 (1: YES)
2. 0 (0: NO)
3. 0 (0: NO)
4. 0 (0: NO)

For every listed record, write down its Is compound selective in assay? Pb ODA active?.
1. Cc1[nH]c(C)c(-c2ccc(-c3cccc(C(F)(F)F)c3)nc2)c(=O)c1Br [TCMDC-135911]
2. Cc1[nH]c(C)c(-c2ccc(-c3ccc4c(c3)OCO4)nc2)c(=O)c1Br [TCMDC-136161]

result:
["1 (1: YES)", "1 (1: YES)"]

// for each compound in input: emit Is compound selective in assay? Pb ODA active?
1. CCc1cc2c(Sc3nc4ccccc4[nH]3)ncnc2s1 [TCMDC-124553]
2. Cc1[nH]c2ccccc2c1C(=O)C(C)Sc1nnc(-c2ccccc2F)o1 (stereo not drawn) [TCMDC-125312]
3. COc1ccc2ncc(C)c(CCN3CCC(NCc4ccc5c(n4)NC(=O)CS5)CC3)c2c1.Cl [TCMDC-134648]
4. CCOC(=O)c1c(CN2CCCC2)n(-c2ccccc2)c2cc(Br)c(O)cc12 [TCMDC-124122]
5. COc1ccc2nccc([C@@H](O)CN3CCC(NCc4cc5ccc(C#N)cc5[nH]4)CC3)c2c1.O=C(O)C(=O)O [TCMDC-140696]

result:
1: 1 (1: YES); 2: 1 (1: YES); 3: 1 (1: YES); 4: 0 (0: NO); 5: 0 (0: NO)
